Target: human PAH with the R408W mutation (Homo sapiens, UniProt P00439, R408W)
Construct: expressed in transfected cells
Sequence (P00439 1-452 R408W): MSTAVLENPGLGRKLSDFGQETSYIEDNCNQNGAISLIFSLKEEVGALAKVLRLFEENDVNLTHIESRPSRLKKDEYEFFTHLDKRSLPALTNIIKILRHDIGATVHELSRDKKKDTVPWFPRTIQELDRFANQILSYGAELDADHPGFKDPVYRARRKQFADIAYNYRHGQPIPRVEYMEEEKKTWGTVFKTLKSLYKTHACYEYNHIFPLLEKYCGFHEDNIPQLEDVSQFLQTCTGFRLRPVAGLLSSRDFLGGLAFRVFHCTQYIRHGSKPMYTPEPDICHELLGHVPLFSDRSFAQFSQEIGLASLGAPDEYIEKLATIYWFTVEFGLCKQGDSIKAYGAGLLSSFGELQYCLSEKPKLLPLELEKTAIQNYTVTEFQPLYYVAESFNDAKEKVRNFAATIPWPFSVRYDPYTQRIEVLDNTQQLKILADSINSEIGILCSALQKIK
Assay: Cell Based Phenylalanine Flux Assay;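 note: after compound treatment, cells received sepiapterin plus isotope-labelled Phenylalanine for 4 hours, then labelled Tyrosine in the medium was quantified, 10-point 2-fold dilution series run in duplicate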
Details: A375 cells expressing R408W PAH; 24 hrs with compound, then 20 µM sepiapterin and 800 µM 13C9,15N-Phenylalanine for 4 hours; 13C-Tyrosine by LC-MS; average where tested multiple times; read-out: AC50
Entries annotated with measured AC50

Find the measured AC50 of Cc1cccn2nc(C3c4nc[nH]c4CCN3C(=O)C3CCC3)cc12 (stereo not drawn) with human PAH with the R408W mutation (Homo sapiens, UniProt P00439, R408W) as test system.
> 5 µM

Find the measured AC50 of Cc1nnc(C(=O)N2CCc3[nH]cnc3C2c2cc3cccc(C)n3n2)o1 (stereo not drawn) with human PAH with the R408W mutation (Homo sapiens, UniProt P00439, R408W) as test system.
1 to 5 µM

Find the measured AC50 of Cn1cc(-c2ncc(C(=O)N3CCc4[nH]cnc4C3c3cc4c(F)cccn4n3)o2)cn1 (stereo not drawn) with human PAH with the R408W mutation (Homo sapiens, UniProt P00439, R408W) as test system.
> 5 µM
